# protocol-text: Biodistribution by gamma well counting at 90 min post-injection
# Type: in vivo, Lewis rats
# condition-context: Lewis, rat, kidney cortex, iv, total radioactivity; 90 min after intravascular injection; read-out: uptake in kidney cortex
endpoint-name: tissue uptake at […] (%ID/g)
Answers are plain numbers, in %ID/g.

Input line: // Input: N=C(N)NCCC[C@@H]1NC(=O)[C@H](CCCCNC(=O)COCCOCCn2cc(CNC(=O)CC[C@H](NC(=O)CCOCCOCCOCCOCCNC(=S)Nc3ccc(CC4CN(CC(=O)O)CCN(CC(=O)O)CCN4CC(=O)O)cc3)C(=O)NCc3cn(CCOCCOCC(=O)NCCCC[C@@H]4NC(=O)[C@@H](Cc5ccccc5)NC(=O)[C@H](CC(=O)O)NC(=O)CNC(=O)[C@H](CCCNC(=N)N)NC4=O)nn3)nn2)NC(=O)[C@@H](Cc2ccccc2)NC(=O)[C@H](CC(=O)O)NC(=O)CNC1=O (stereo partly shown) [compound 7] . Output its tissue uptake at […] only.
Output line: 11.1
